The origin of these recorded values is paper PMC10244618.

B1: NF2 (merlin) isoform 7, human, full length (507 aa, lacks exons 2-3 = isoform-1 residues 39-121; exon-16 C-terminus), P35240-4 (parent)
chain: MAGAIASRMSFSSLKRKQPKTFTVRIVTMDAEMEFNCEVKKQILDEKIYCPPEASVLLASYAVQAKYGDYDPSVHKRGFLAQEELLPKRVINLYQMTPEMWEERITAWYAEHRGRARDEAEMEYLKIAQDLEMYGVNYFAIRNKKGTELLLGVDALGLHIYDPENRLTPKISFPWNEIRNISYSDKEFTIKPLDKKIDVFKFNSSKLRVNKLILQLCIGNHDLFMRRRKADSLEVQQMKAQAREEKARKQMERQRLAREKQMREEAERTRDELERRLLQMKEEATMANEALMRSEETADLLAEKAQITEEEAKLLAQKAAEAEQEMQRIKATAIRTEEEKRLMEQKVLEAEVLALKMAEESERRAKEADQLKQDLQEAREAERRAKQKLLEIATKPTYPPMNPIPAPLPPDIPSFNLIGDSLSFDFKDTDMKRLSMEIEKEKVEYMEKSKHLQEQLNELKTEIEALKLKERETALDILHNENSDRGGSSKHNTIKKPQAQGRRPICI

# Variants of: B1
# protocol-summary: reverse yeast two-hybrid deep mutational scan (rY2H-seq): NF2 isoform 7 mutant library as bait mated with wild-type prey strains; selection on medium lacking adenine for non-interacting pairs; NextSeq paired-end sequencing; enrichment vs …
# condition-details: with EMILIN1 (elastin microfibril interfacer 1), Q9Y6C2; yeast diploids after mating (RBait_S3 x RPrey_S3), 30 °C, selection for reporter genes on NB agar; human ABL2 co-expressed as the kinase-dead K35M mutant …; HIGHER = WEAKER BINDING (the opposite of display enrichments): higher = stronger loss of interaction: reverse Y2H selects yeast in which bait and prey do NOT interact (growth without adenine), so a …; hits-only table; scale: rY2H score; numbering: uniprot, sequence starts at 1
quantity-kind: enrichment
Form rule: numeric answer, no unit written next to it.

Sample answers from the record:
INSERT INTO results (mutations, observed_measurement) VALUES
  ('P403R', 5.14),
  ('I463A', 5.41),
  ('R341K', 2.64);

Ask: Any idea what its enrichment is? The variant is Y398L
Reply: 1.89

Ask: Now the variant E274K
Reply: 1.67

Ask: Now consider L300E and answer again.
Reply: 5.44

Ask: Now give it for S483A too.
Reply: 2.27

Ask: And what about the variant R335K ?
Reply: 3.27

Ask: Same lookup for T168L , please.
Reply: 2.75

Ask: Follow-up item: Y161A
Reply: 2.53

Ask: Subsequent entry: S55E
Reply: 6.87

Ask: Another variant to look at: A333L
Reply: 2.47

Ask: Request: T394L
Reply: 5.41

Ask: Likewise for P497L ?
Reply: 2.21

Ask: Please give the result for I418L too.
Reply: 6.81

Ask: Would you mind doing P409A as well?
Reply: 2.09
